assay: Membrane permeability by PAMPA assay
Readout: Papp

COc1ccc(-c2ccnc(Nc3ccc(S(N)(=O)=O)cc3)n2)cc1: < 0.01 ×10⁻⁶ cm/s
NS(=O)(=O)c1ccc(Nc2ncc3c(n2)-c2ccccc2CC3)cc1: 2.92 ×10⁻⁶ cm/s

INPUT: What does the record list as Papp for "COc1ccc2c(c1)CCc1cnc(Nc3ccc(S(N)(=O)=O)cc3)nc1-2" ?
OUTPUT: 1.8 ×10⁻⁶ cm/s

* * *

experiment: Apparent permeability from basolateral to apical side in human Caco-2 cells
Listed next: entries and their corresponding Papp B→A.
Enter your answer as a number in ×10⁻⁶ cm/s; do not include the unit.

CN(C)CCNS(=O)(=O)c1ccc(Nc2nccc(-c3ccsc3)n2)cc1: 13.2

INPUT: Which Papp B→A value is on record for "CN(C)CCNS(=O)(=O)c1ccc(Nc2ncc3c(n2)-c2ccsc2CC3)cc1" ?
OUTPUT: 3.08

INPUT: Would you kindly share the measured Papp B→A for "NS(=O)(=O)c1ccc(Nc2ncc3c(n2)-c2ccsc2CC3)cc1" ?
OUTPUT: 20.7
